Attribution: paper PMC10663500

Listed here: items and their measured pKd.
molecular target: T1, human programmed cell death protein 1 (hPD-1) C93S (aa 24-167) (Homo sapiens, UniProt Q15116, C93S); experiment: SPR; Carterra LSA; Fab from the ammonium sulfate precipitate of the culture supernatant immobilised on a NiHC200M chip; hPD-1 (1-1024 nM) or mPD-1-Fc (4-1024 nM) as analyte, fourfold dilution series, no regeneration; HBS-EP pH 7.4, 25 °C; medians over the spots of a construct, KD = koff/kon; conditions: one partner purified
T1 construct: made as a fusion with a TEV site and human Fc; the Fc was cut off with TEV protease; source: Expi293F, purified (Protein A, TEV cleavage of Fc, SEC; monomer fractions); not shown: Fc (human), C-terminal, cleaved
T1 sequence (Q15116 24-167 C93S): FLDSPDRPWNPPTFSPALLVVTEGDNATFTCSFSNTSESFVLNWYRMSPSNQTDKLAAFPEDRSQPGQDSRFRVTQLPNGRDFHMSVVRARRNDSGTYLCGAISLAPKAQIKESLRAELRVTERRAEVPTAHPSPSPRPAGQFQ
pKd: −log10 of the molar value.

toripalimab Fab L.L101G (Fab, V domains shown, as the heavy chain of Sm3; light chain of Sm3 with this change; numbers count from the chain's first residue; source: Brevibacillus, culture supernatant (ammonium sulfate precipitate); not shown: 6xHis, C-terminal, kept; 6xHN, C-terminal, kept) VH: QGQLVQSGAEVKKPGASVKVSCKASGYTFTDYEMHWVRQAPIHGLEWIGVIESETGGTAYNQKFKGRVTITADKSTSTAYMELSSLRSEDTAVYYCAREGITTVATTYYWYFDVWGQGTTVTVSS VL: DVVMTQSPLSLPVTLGQPASISCRSSQSIVHSNGNTYLEWYLQKPGQSPQLLIYKVSNRFSGVPDRFSGSGSGTDFTLKISRVEAEDVGVYYCFQGSHVPGTFGQGTKLEIK ... > 8.71
toripalimab Fab H.S53A (Fab, V domains shown, heavy chain of Sm3 with this change; numbers count from the chain's first residue; as the light chain of Sm3; source: Brevibacillus, culture supernatant (ammonium sulfate precipitate); not shown: 6xHis, C-terminal, kept; 6xHN, C-terminal, kept) VH: QGQLVQSGAEVKKPGASVKVSCKASGYTFTDYEMHWVRQAPIHGLEWIGVIEAETGGTAYNQKFKGRVTITADKSTSTAYMELSSLRSEDTAVYYCAREGITTVATTYYWYFDVWGQGTTVTVSS VL: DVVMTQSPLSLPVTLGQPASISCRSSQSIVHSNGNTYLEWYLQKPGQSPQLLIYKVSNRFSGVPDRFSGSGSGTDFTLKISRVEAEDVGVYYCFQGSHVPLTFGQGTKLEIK ... > 8.90

-- ask Item toripalimab Fab L.T36Y (Fab, V domains shown, as the heavy chain of Sm3; light chain of Sm3 with this change; numbers count from the chain's first residue; source: Brevibacillus, culture supernatant (ammonium sulfate precipitate); not shown: 6xHis, C-terminal, kept; 6xHN, C-terminal, kept) VH: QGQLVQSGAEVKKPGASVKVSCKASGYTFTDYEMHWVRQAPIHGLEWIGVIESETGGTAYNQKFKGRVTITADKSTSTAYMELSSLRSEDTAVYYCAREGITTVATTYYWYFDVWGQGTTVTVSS VL: DVVMTQSPLSLPVTLGQPASISCRSSQSIVHSNGNYYLEWYLQKPGQSPQLLIYKVSNRFSGVPDRFSGSGSGTDFTLKISRVEAEDVGVYYCFQGSHVPLTFGQGTKLEIK has what recorded pKd?
-- reply > 9.43
